# study-system: GDP-bound KRAS wild-type protein (Homo sapiens, UniProt P01116)
# Sequence (P01116 1-188 isoform P01116-2): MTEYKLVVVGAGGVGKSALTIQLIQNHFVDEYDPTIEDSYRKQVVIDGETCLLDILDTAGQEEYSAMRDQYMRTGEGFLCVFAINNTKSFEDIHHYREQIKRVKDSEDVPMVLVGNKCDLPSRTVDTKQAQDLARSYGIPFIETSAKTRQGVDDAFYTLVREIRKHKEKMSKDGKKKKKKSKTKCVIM
# test-details: Binding to KRAS by surface plasmon resonance (SPR), dissociation constant KD
# reported-conditions: Single Cycle Kinetics, 1:1 binding model
Kd for assorted molecules
Write it as a number; the unit nM goes unstated.

Example molecules with recorded Kd:
// Kd lookup, key: CCO[C@@H]1C[C@H]2C(=O)NC3(CCC3)C(=O)N(C)[C@@H](C3CCCC3)C(=O)N(C)[C@H](C)CC(=O)N(C)[C@@H](CC3CCCC3)C(=O)N[C@@H]([C@@H](C)CC)C(=O)N(C)CC(=O)N(C)[C@H]3C/C=C\CCN(C3=O)[C@@H](Cc3ccc(F)cc3)C(=O)N(C)CC(=O)N[C@@H](CCc3cc(F)c(C(F)(F)F)c(F)c3)C(=O)N2C1 [PP1492]
0.94

Any idea what its Kd is? The molecule is CCO[C@@H]1C[C@H]2C(=O)NC3(CCC3)C(=O)N(C)[C@@H](C3CCCC3)C(=O)N(C)[C@H](C(=O)N(C)C)CC(=O)N(C)[C@@H](CC3CCCC3)C(=O)N[C@@H]([C@@H](C)CC)C(=O)N(C)CC(=O)N(C)[C@H]3C/C=C\CCN(C3=O)[C@@H](CC3CCC(F)(F)CC3)C(=O)N(C)CC(=O)N[C@@H](CCc3cc(F)c(C(F)(F)F)c(F)c3)C(=O)N2C1 [PP1458]
0.15

Name the recorded Kd for CCO[C@@H]1C[C@H]2C(=O)NC3(CCC3)C(=O)N(C)[C@@H](C3CCCC3)C(=O)N(C)[C@H](C)CC(=O)N(C)[C@@H](CC3CC3)C(=O)N[C@@H]([C@@H](C)CC)C(=O)N(C)CC(=O)N(C)[C@H]3C/C=C\CCN(C3=O)[C@@H](Cc3ccc(C)cc3)C(=O)N(C)CC(=O)N[C@@H](CCc3cc(F)c(C(F)(F)F)c(F)c3)C(=O)N2C1 [PP1410] .
0.32

Form field: reported Kd of CCO[C@@H]1C[C@H]2C(=O)NC3(CCC3)C(=O)N(C)[C@@H](C3CCCC3)C(=O)N(C)[C@H](C(=O)N(C)C)CC(=O)N(C)[C@@H](CC3CC3)C(=O)N[C@@H]([C@@H](C)CC)C(=O)N(C)CC(=O)N(C)[C@H]3C/C=C\CCN(C3=O)[C@@H](Cc3ccc(F)cc3C)C(=O)N(C)CC(=O)N[C@@H](CCc3cc(F)c(C(F)(F)F)c(F)c3)C(=O)N2C1 [PP1528]
0.2

GET /values?readout=Kd&item= CCO[C@@H]1C[C@H]2C(=O)NC3(CCC3)C(=O)N(C)[C@@H](C3CCCC3)C(=O)N(C)[C@H](C(=O)N(CC)CC)CC(=O)N(C)[C@@H](CC(F)F)C(=O)N[C@@H]([C@@H](C)CC)C(=O)N(C)CC(=O)N(C)[C@H]3C/C=C\CCN(C3=O)[C@@H](Cc3ccc(C(F)(F)F)cc3)C(=O)N(C)CC(=O)N[C@@H](CCc3cc(F)c(C(F)(F)F)c(F)c3)C(=O)N2C1 [PP1309]
0.16

***
Query: Kd; subject: CC[C@H](C)[C@@H]1NC(=O)[C@H](CC2CC2)N(C)C(=O)C[C@@H](C(=O)N(C)C)N(C)C(=O)[C@H](C2CCCC2)N(C)C(=O)C2(CC(C)(C)C2)NC(=O)[C@@H]2C[C@@H](C)CN2C(=O)[C@H](CCc2ccc(C(F)(F)F)c(OC)c2)NC(=O)CN(C)C(=O)[C@H](Cc2ccc(C)cc2)N2CC/C=C\C[C@@H](C2=O)N(C)C(=O)CN(C)C1=O [PP1901]
0.098
